EXPERIMENT NOTES: qHTS assay to identify small molecule antagonists of the estrogen related receptor (ERR) signaling pathway from Tox21 library - cell viability counter screen (AID 1224834); also: nearly all actives have a fitted effect of over 30% in size
MEASUREMENT PARAMETERS: ERR reporter cells viability, CellTiter-Fluor, 17.5 h; series mostly up to 92.4 µM
Results filed as inconclusive are left out. Active and inactive are the calls of the source. Calls follow the shape of the dose curve; as a rule, active = well fitted cell-killing curve with a large enough effect in the repeat runs; inconclusive = weak or mixed curves; inactive = flat fitted curve, though single readings scatter.
API: response.call in active, inactive

Please review the following examples before continuing.
> print(dat)
                                   molecule  group.label
1  CC(=O)CC(c1ccc([N+](=O)[O-])cc1)c1c(O)c2ccccc2oc1=O (configuration not stated)     inactive
2             O=C(NCCCN1CCOCC1)c1ccc(Cl)cc1     inactive
3  CC(C)(C)C(=O)C(Oc1ccc(Cl)cc1)n1ccnc1 (configuration not stated)     inactive
4     Nc1ccc(C(=O)OCCCOC(=O)c2ccc(N)cc2)cc1     inactive
5                                CCCOCCOCCO     inactive
6                   O=C(Nc1ccccc1)Nc1ccccc1     inactive

Then there is this molecule:
-- ask // return assay outcome for `Cc1cc(S(=O)(=O)O)ccc1N=Nc1c(O)ccc2ccccc12`
-- reply active

====

EXPERIMENT NOTES: qHTS assay for small molecule agonists of the antioxidant response element (ARE) signaling pathway - cell viability counter screen (AID 743203); also: % is scaled to controls: 0 for no effect and ±100 for the full control effect; nearly all actives have a fitted effect of over 55% in size
MEASUREMENT PARAMETERS: ARE-bla HepG2 viability, CellTiter-Glo luminescence, 16 h; series mostly up to 73.3 µM
Inconclusive results are not listed. The source made the active and inactive calls. Calls come from the whole dose curve.
QUANTITY: viability change, negative = cytotoxic

Observe how each entry below is paired with its result.
> print(dat)
                                   compound  observed.value
1  COCc1c(C(C)C)nc(C(C)C)c(/C=C/[C@@H](O)C[C@@H](O)CC(=O)O)c1-c1ccc(F)cc1        inactive
2         NCC1CCCC(CN)C1 (stereo not given)        inactive
3                 C=CC(=C)CCCC(C)(C)OC(C)=O        inactive
4                              CCCCCCCCSCCO        inactive
5  CN1Cc2cc(C(=O)N3CCC(C4CCNCC4)CC3)ccc2N[C@@H](CC(=O)O)C1=O        inactive
6                                  CCC(C)=O        inactive

-- ask I would be grateful if you could share the reported viability change, negative = cytotoxic for CCCCC(CC)CNCC(CC)CCCC (stereo not given) .
-- reply inactive

-- ask Next up: `CCOC(=O)c1ccccc1C`
-- reply inactive

====

TARGET OR TEST SYSTEM: Thyrotropin-releasing hormone receptor (Homo sapiens) (UniProt P34981)
Sequence (P34981 whole entry, looked up): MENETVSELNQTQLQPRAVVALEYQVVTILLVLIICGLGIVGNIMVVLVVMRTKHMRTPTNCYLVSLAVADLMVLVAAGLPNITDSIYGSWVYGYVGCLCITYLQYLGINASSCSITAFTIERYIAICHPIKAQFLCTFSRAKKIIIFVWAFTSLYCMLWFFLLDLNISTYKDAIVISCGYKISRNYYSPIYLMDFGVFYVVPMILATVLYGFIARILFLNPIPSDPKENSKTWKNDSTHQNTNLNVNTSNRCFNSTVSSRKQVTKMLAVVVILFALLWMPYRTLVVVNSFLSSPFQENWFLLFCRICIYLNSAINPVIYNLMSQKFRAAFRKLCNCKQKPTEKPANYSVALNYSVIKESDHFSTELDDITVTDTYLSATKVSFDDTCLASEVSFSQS
EXPERIMENT NOTES: qHTS assay to identify small molecule agonists of the thyrotropin-releasing hormone receptor (TRHR) signaling pathway (AID 1346891);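 also: HEK293 cells expressing TRHR with calcium dye readout; % is scaled to controls: 0 for no effect and ±100 for the full control effect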
MEASUREMENT PARAMETERS: TRHR-HEK293 calcium fluorescence, agonist mode; series mostly up to 57.6 µM
Active and inactive are the calls of the source. Calls follow the shape of the full dose curve.
QUANTITY: activation

Take a look at these entries with their results.
> print(dat)
                               input.smiles                     target.or.test.system  observed.value
1  Cc1nccn1-c1ccc(Sc2cccc(C3(C(N)=O)CCOCC3)c2)cc1  Thyrotropin-releasing hormone receptor (Homo sapiens) (UniProt P34981)        inactive
2                       CCOC(=O)/C=C/C(=O)O  Thyrotropin-releasing hormone receptor (Homo sapiens) (UniProt P34981)        inactive
3                         C=CC(=O)NCOCC(C)C  Thyrotropin-releasing hormone receptor (Homo sapiens) (UniProt P34981)        inactive
4  COc1cc2c(cc1OC)-c1cc(=Nc3c(C)cc(C)cc3C)n(C)c(=O)n1CC2  Thyrotropin-releasing hormone receptor (Homo sapiens) (UniProt P34981)        inactive
5  Nc1c(I)cc(I)c(C(=O)N(CCC(=O)O)c2ccccc2)c1I  Thyrotropin-releasing hormone receptor (Homo sapiens) (UniProt P34981)        inactive
6                         CCOC(=N)CC(=O)OCC  Thyrotropin-releasing hormone receptor (Homo sapiens) (UniProt P34981)        inactive

Please find the next compound below.
-- ask I'd like to know its activation. The compound in question is `C(=C\c1ccccc1)/CN1CCN(C(c2ccccc2)c2ccccc2)CC1`
-- reply inactive

====

TARGET OR TEST SYSTEM: Cytochrome P450 2D6 (Homo sapiens)
EXPERIMENT NOTES: Cytochrome P450 Family 2 Subfamily D Member 6 (CYP2D6) small molecule antagonists: luciferase reporter qHTS assay (AID 1671196); also: % is scaled to controls: 0 for no effect and ±100 for the full control effect; nearly all actives have a fitted effect of over 50% in size
MEASUREMENT PARAMETERS: P450-Glo CYP2D6 enzyme assay, luciferin luminescence, 1 h; series mostly up to 115 µM
Records with an inconclusive call do not appear. Calls of active or inactive are those of the source. Calls come from the whole dose curve; as a rule, active = well fitted inhibition curve with a large enough effect in the repeat runs; inconclusive = weak or mixed curves; inactive = no such curve, though single readings can be large or run the other way.
QUANTITY: activity change, negative = inhibition

Known activity change, negative = inhibition results, listed for orientation:
> print(dat)
                               input.smiles                    observed.value
1  CCCC(=O)O[C@]1(C(=O)COC(=O)CC)CC[C@H]2[C@@H]3CCC4=CC(=O)CC[C@]4(C)[C@H]3[C@@H](O)C[C@@]21C  -0.0142% [at 23.6 µM] (inactive)
2                                  [O]=[Bi]   -0.389% [at 10.5 µM] (inactive)
3                        CCCCCCCCCCCCCCCCBr    -8.89% [at 23.6 µM] (inactive)
4  CN1CCN(c2c(F)cc3c(=O)c(C(=O)O)cn4c3c2OCN4C)CC1    -1.32% [at 23.6 µM] (inactive)

Now let's try a different one.
-- ask I am curious: what activity change, negative = inhibition value has been reported for `C=CCCCCCCCCCCCCCCCC` ?
-- reply 0.602% [at 10.5 µM] (inactive)

====

TARGET OR TEST SYSTEM: Nuclear receptor subfamily 1 group I member 2 (Rattus norvegicus) (UniProt Q9R1A7)
Sequence (Q9R1A7 whole entry, looked up): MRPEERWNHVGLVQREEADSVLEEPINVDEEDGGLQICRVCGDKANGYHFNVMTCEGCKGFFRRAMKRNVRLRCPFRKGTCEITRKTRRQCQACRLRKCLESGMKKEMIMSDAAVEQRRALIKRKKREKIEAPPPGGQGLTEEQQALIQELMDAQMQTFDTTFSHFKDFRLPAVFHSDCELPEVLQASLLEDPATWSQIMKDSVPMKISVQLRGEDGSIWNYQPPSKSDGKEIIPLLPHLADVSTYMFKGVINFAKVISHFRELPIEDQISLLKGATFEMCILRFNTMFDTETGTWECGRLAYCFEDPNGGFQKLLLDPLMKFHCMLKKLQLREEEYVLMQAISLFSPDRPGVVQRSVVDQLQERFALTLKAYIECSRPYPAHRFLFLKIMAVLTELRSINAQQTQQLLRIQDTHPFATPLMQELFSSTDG
EXPERIMENT NOTES: Rat pregnane X receptor (rPXR) activation by small molecules, qHTS assay (AID 1346983); also: % is scaled to controls: 0 for no effect and ±100 for the full control effect; nearly all actives have a fitted effect of over 20% in size
MEASUREMENT PARAMETERS: rPXR luciferase reporter cells, One-Glo luminescence, 24 h; active compounds read high
Inconclusive results are not listed.
The reader will find reported max activation values listed item by item below.
Enter your answer as a number in %; do not include the unit.

Answered cases to consult:
> print(dat)
                               input.smiles        quantity  u  observed.value
1               CNCCCC1c2ccccc2C=Cc2ccccc21  max activation  %           -3.85
2  Cc1cc(OI)c(C(C)C)cc1-c1cc(C(C)C)c(OI)cc1C  max activation  %           0.407
3                      CCCOC(=O)c1ccc(N)cc1  max activation  %            14.2
4  CC(=O)Oc1ccc2c(c1)CC[C@@H]1[C@@H]2CC[C@]2(C)[C@@H](O)CC[C@@H]12  max activation  %           -1.91
5  O=C(N/N=C/c1ccc([N+](=O)[O-])o1)c1ccc(O)cc1  max activation  %           -12.4
6                     Cc1cc(O)c(C(C)C)cc1Cl  max activation  %          -0.692
7  Nc1nc(Cl)nc2c1ncn2[C@@H]1O[C@H](CO)[C@@H](O)[C@@H]1F  max activation  %           -7.37
8                      C[N+](C)(C)CCOC(N)=O  max activation  %            0.11

-- ask I'd like to know its max activation. The compound in question is `CC(=O)OCC(=O)[C@H]1CC[C@H]2[C@@H]3CCC4=CC(=O)CC[C@]4(C)[C@H]3CC[C@]12C`
-- reply 2.69

-- ask Please answer likewise for `O=C1OCCN1/N=C/c1ccc([N+](=O)[O-])o1`
-- reply -6.39

-- ask Queued: `Cc1c(C(=O)NN2CCCCC2)nn(-c2ccc(Cl)cc2Cl)c1-c1ccc(Cl)cc1`
-- reply -8.23

====

EXPERIMENT NOTES: qHTS assay to test for compound auto fluorescence at 460 nm (blue) in HEK293 cell free culture (AID 720681); also: % is scaled to controls: 0 for no effect and ±100 for the full control effect
MEASUREMENT PARAMETERS: cell-free medium, autofluorescence 405/460 nm (blue); series mostly up to 91.3 µM
Description: U.S. Tox21 Program National Center for Advancing Translational Sciences [NCATS] NIH Chemical Genomics Center [NCGC] U.S. Environmental Protection Agency [EPA] National Institutes of Environmental Health Sciences [NIEHS] National Toxicology Program [NTP] U.S. Food and Drug Administration [FDA] Tox21 Assay Overview: Compound auto fluorescence often interferes with screening of the compound library against various biological targets and signaling pathways. […] This assay includes the blue fluorescence data. […]
Activity calls are given as the source filed them. The call rests on the fitted dose curve; in most records, active means well fitted curve in the direction sought with a large enough effect in the repeat runs; inconclusive means weak or mixed curves; inactive means flat fitted curve, though single readings scatter.
QUANTITY: fluorescence, % of fluorescent control

Example compounds with recorded fluorescence, % of fluorescent control:
> print(dat)
                               input.smiles                                quantity                   observed.value
1  CC1=C(/C=C/C(C)=C\C=C\C(C)=C\C(=O)O)C(C)(C)CCC1  fluorescence, % of fluorescent control                         inactive
2  CN1CCN(CCCN2c3ccccc3Sc3ccc(S(=O)(=O)N(C)C)cc32)CC1  fluorescence, % of fluorescent control  0.0966% [at 18.6 µM] (inactive)
3                           CO[Si](C)(OC)OC  fluorescence, % of fluorescent control                         inactive
4                               CCOC(=O)OCC  fluorescence, % of fluorescent control                         inactive
5   O=C(OCCOCCO)c1ccccc1Nc1cccc(C(F)(F)F)c1  fluorescence, % of fluorescent control  -0.158% [at 18.6 µM] (inactive)
6                      C[N+](C)(C)CCOC(N)=O  fluorescence, % of fluorescent control                         inactive

-- ask What does the record list as fluorescence, % of fluorescent control for `CN1CCCN=C1/C=C/c1cccs1` ?
-- reply inactive

-- ask Now consider `O=C(CCC1CCN(Cc2ccccc2)CC1)c1ccc2c(c1)NCCCC2` and answer again.
-- reply inactive

-- ask Do the same for `CCC(=O)Oc1ccc(/C(CC)=C(\CC)c2ccc(OC(=O)CC)cc2)cc1` please
-- reply inactive
